# Tested on: Botulinum neurotoxin type F light chain protease (Clostridium botulinum)
# ASSAY_TEXT: Botulinum neurotoxin type F light chain protease inhibition, multiplex microsphere flow cytometry, validation set (AID 588459)
# CONDITION_SUMMARY: multiplex microsphere protease substrate cleavage assay, at 10 µM, stronger effect = higher value
Can you tell me inhibition for the items I'm about to list?
Numbers only, in %.

1. CC(C)CC(NC(=O)c1cccc(Cl)c1)C(=O)O (configuration not stated)    -4.2

# return inhibition for each item in the list
1. CCOc1ccc(C(=O)/C=C/c2cc(OC)c(OC)c(OC)c2)cc1
2. CCOC(=O)c1ccc2[nH]c(C)c(CCC(C)=O)c(=O)c2c1
3. c1cc2c(cc1C1CCCCC1)c1c3n2CCN=C3CCC1
4. C=C1C2(C(=O)Nc3ccc(SC(F)F)cc3)CCC(C2)C1(C)C (configuration not stated)
5. Nc1nc2c(nc(SCc3ccccc3Br)n2C2OC(CO)C(O)C2O)c(=O)[nH]1 (configuration not stated)
6. CC(=O)c1c[nH]c2ccc(C)cc2c1=O
7. CCN(CC)CCOC(=O)C1(C2CCCCC2)CCCCC1
8. CN1CCN(C2=Nc3cc(Cl)ccc3Nc3ccccc32)CC1

## Output
0.5
-0.7
0.7
-1.3
-2.6
-1.7
1.9
-0.2

// input: 3 compounds below; output: inhibition for each
1. CC(=O)[C@H]1CC[C@H]2[C@@H]3CC[C@H]4C[C@H](O)CC[C@]4(C)[C@H]3C(=O)C[C@]12C
2. Cn1c(=O)c2c(ncn2CCO)n(C)c1=O
3. CCC12CN3CC(CC)(CN(C1)C31C(=O)N(C)c3ccc(C)cc31)C2=O (configuration not stated)

## Output
1: 0.8; 2: 1.2; 3: -1.6

Please give inhibition, item by item, for the list that follows.
1. O=C(O)CCCCCCCC(=O)O
2. C[C@]12CC[C@@H](O)C[C@@H]1CC[C@@H]1[C@@H]2CC[C@]2(C)C(=O)CC[C@@H]12
3. CC1=C(/C=C/C(C)=C/C=C/C(C)=C/C(=O)O)C(C)(C)CCC1
4. C[C@]12CC[C@@H]3c4ccc(O)cc4CC[C@H]3[C@@H]1CC[C@@H]2OC(=O)CCC(=O)O
5. N=C(N)c1ccc(OCCCCCOc2ccc(C(=N)N)cc2)cc1

## Output
1.1
2
0.8
-0.1
0.7

* * *

# System: Botulinum neurotoxin type F light chain protease (Clostridium botulinum)
# ASSAY_TEXT: Botulinum neurotoxin type F light chain protease inhibition, multiplex microsphere flow cytometry, validation set (AID 588459)
# CONDITION_SUMMARY: multiplex microsphere protease substrate cleavage assay, at 10 µM, stronger effect = higher value
For each entry below, report its inhibition value.
Answers are plain numbers, in %.

I'm hoping you can list inhibition for every compound here, please.
1. CCN(CC)C(=O)N1CCN(C)CC1
2. COc1ccc(O)c(N)c1
3. O=c1oc2c(CN3CCN(CCO)CC3)c(O)ccc2cc1-c1ccccn1

## Output
1. -3.4
2. -8.6
3. -0.2

* * *

# STUDY_TARGET: Lethal factor (Bacillus anthracis) (UniProt P15917)
# ASSAY_TEXT: Lethal factor protease inhibitors, Bacillus anthracis, multiplex microsphere cleavage assay, validation set (AID 588461)
# CONDITION_SUMMARY: flow cytometry, at 10 µM, stronger effect = higher value
EXPERIMENTAL_READOUT: inhibition (%)
One number for each entry, in %.

Observe how each entry below is paired with its result.
1) O=C(CN1CC[n+]2c(-c3cccs3)csc21)c1ccc(Br)cc1    -1.6
2) Fc1cc(F)cc(NC(=S)NCCCN2CCOCC2)c1    -2.9

For every listed record, write down its inhibition.
1. CCCCC[C@H](O)/C=C/[C@@H]1[C@@H](C/C=C\CCCC(=O)OC)[C@@H](O)C[C@H]1O
2. CCc1cc(/C(Cc2ccccn2)=N\O)c(O)cc1O
3. COc1cc2c(cc1OC)C(=S)NC(C)(C)C2
4. CCOc1ccccc1C(=O)NCCC(=O)O
5. CN(C(=O)C(Cl)Cl)c1ccc(OC(=O)c2ccco2)cc1

## Output
1. -1.1
2. -5.1
3. 2.9
4. 0.2
5. -0.8

Required: inhibition, one value per compound below.
1. O=C1C(Cc2c[nH]c3ccccc23)NC(=S)N1Cc1ccccc1 (stereo not drawn)
2. CCOC(=O)C1=C(N)Oc2c(oc(CO)cc2=O)C1c1ccc(F)c(F)c1 (stereo not drawn)
3. COc1ccc(CCN2CNc3c(c(=O)n(C)c(=O)n3C)C2)cc1OC
4. CCn1nc(C(=O)O)c(=O)c2cc3c(cc21)OCO3
5. Nc1ccc(N)c(C(=O)O)c1

## Output
[-1.8, -2.3, 4.8, 0.2, -7.2]

// for each compound in input: emit inhibition
1. COc1cc(/C=C2\C(=O)NC(=O)N(c3ccccc3)C2=O)c([N+](=O)[O-])cc1OC
2. CCn1c(/C=C/c2ccccc2)nc2ccccc2c1=O

## Output
-1.8
7.2

Can you give me inhibition for all of these, one by one?
1. COC1(C)CC2C(CC1OC(=O)c1cc([N+](=O)[O-])cc([N+](=O)[O-])c1)C2(C)C (stereo not drawn)
2. c1ccc(Nc2cccc3c(Nc4ccccc4)cccc23)cc1
3. Cc1ccccc1NC(=O)NCCc1c[nH]c2ccccc12
4. C[C@H]1CCCC(=O)CCC/C=C/c2cc(O)cc(O)c2C(=O)O1
5. C[N+]12CCC(CC1)C(OC(=O)C(O)(c1ccccc1)c1ccccc1)C2 (stereo not drawn)
6. CCOc1ccccc1Oc1coc2cc(OCC(=O)O)ccc2c1=O
7. CC(=O)N(CCC1(C(C)C)CCOC(C)(C)C1)Cc1ccco1 (stereo not drawn)
8. COc1ccc(-c2coc3cc(OC(=O)N4CCOCC4)ccc3c2=O)cc1

## Output
[-5.5, -25.4, -3.6, 0.4, -0.4, 0.2, 0.2, -0.4]

## Input Using the record for "CC1(C)S[C@@H]2[C@H](NC(=O)Cc3ccccc3)C(=O)N2[C@H]1C(=O)O" , report its inhibition.
## Output -0.8

* * *

# System: Botulinum neurotoxin type F light chain protease (Clostridium botulinum)
# ASSAY_TEXT: Botulinum neurotoxin type F light chain protease inhibition, multiplex microsphere flow cytometry, validation set (AID 588459)
# CONDITION_SUMMARY: multiplex microsphere protease substrate cleavage assay, at 10 µM, stronger effect = higher value
Calls of active or inactive are those of the source. No rule for the calls is given here.
EXPERIMENTAL_READOUT: inhibition

Some compounds with recorded inhibition:
1. CC1=CC2(O)OCCN(CCO)C2=CC1=O (stereo unspecified)    -1.5% (inactive)
2. CC(=O)C1=C(Nc2ccc(C)cc2)CC(C)(O)C(C(C)=O)C1c1ccco1 (stereo unspecified)    1% (inactive)
3. CC(=O)Nc1ccccc1O    1.5% (inactive)
4. O=C(Cc1c[nH]c2ccccc12)OCCOC(=O)Cc1c[nH]c2ccccc12    0.9% (inactive)
5. CCn1c(N2CCN(CC(=O)c3c(C)n(C)c4ccc(OC)cc34)CC2)nc2c1c(=O)[nH]c(=O)n2C    -1.4% (inactive)

## Input May I ask what inhibition has been recorded for "CC(=O)c1cccc2c(O)c(C3=Nc4ccccc4C3=O)[nH]c12" ?
## Output -2.1% (inactive)

* * *

# Test system: Botulinum neurotoxin type F light chain protease (Clostridium botulinum)
# ASSAY_TEXT: Botulinum neurotoxin type F light chain protease inhibition, multiplex microsphere flow cytometry, validation set (AID 588459)
# CONDITION_SUMMARY: multiplex microsphere protease substrate cleavage assay, at 10 µM, stronger effect = higher value
So I've got a bunch of molecules here, and I need their inhibition values.
Give bare numbers, in %.

Reference set, count: 3
1) NC(=O)c1cnccn1    0.4
2) Cc1ccc(C(=O)Nc2ccc(O)cc2C(=O)O)cc1C    10.3
3) CCN(CC)C(=O)c1sc(NC(=O)c2c(OC)cccc2OC)c(C#N)c1C    6

For every item below, please supply its inhibition.
1. COc1ccc(OC)c(C(=O)c2coc3ccc(O)cc23)c1
2. O=C(O)C1CSC(c2ccc3c(c2)OCO3)N1 (centres undefined)
3. c1coc(-c2nnc3n2C2(CCCC2)Cc2ccccc2-3)c1
4. Cc1ccc(Cl)c(Nc2ccccc2C(=O)O)c1Cl
5. CCOc1ccc(C2C(C#N)=C(N)Oc3c2c(=O)oc2ccccc32)cc1 (centres undefined)

## Output
-0.5
3.1
2.5
-4.5
-0.4

I need inhibition for every entry listed below, if you could help.
1. NS(=O)(=O)c1cc2c(cc1Cl)NC(CSCc1ccccc1)=NS2(=O)=O
2. Cc1ccc2nc3c(cc(C(=O)NCC4CCCO4)c(=N)n3CCCOC(C)C)c(=O)n2c1 (centres undefined)
3. NC(N)=N/N=C/c1c(Cl)cccc1Cl
4. O=C(c1ccco1)N1CCCN(Cc2nc(-c3ccc4c(c3)OCO4)no2)CC1
5. Nc1ccc(S(N)(=O)=O)cc1N
6. CC1(C)C(=O)OC(/C=C\c2ccccc2)C(C)(C)C1=O (centres undefined)
7. Cc1ncc(C(=O)O)c(C(=O)O)c1N

## Output
-4.8
3.3
-0.2
1
1.4
1.5
0.4

Value sought for every listed molecule: inhibition.
1. Nc1nnc(CSCc2ccc(Cl)cc2Cl)s1
2. O=C(O)C1CSC(c2ccco2)N1 (centres undefined)
3. CC(=O)Oc1cc(C(C)C)c(OCCN(C)C)cc1C
4. Cc1ccc2c(c1)c1c3n2CCCN(Cc2ccccc2)C3CCC1 (centres undefined)
5. CO[C@@]1(NC(=O)Cc2cccs2)C(=O)N2C(C(=O)O)=C(COC(N)=O)CS[C@@H]21
6. COc1ccc(C(=O)Oc2ccc3c(C)cc(=O)oc3c2C(C)=O)cc1

## Output
0.7
-2.3
1.9
-0.2
-1.9
0.7
